The reported measurements were obtained from patent US20150337019A1.

Target: Cathepsin B from bovine spleen (bovine, UniProt P07688 80-332)
Test: cell-based or functional assay
quantity: Cathepsin B inhibition test, 2 mM peptide

• Ac-Met-Asp-Lys-OH [Ac-MDK-OH] = 110
• Ac-Met-Asn-Arg-OH [Ac-MNR-OH] = 101
• H-Thr-Asp-Lys-OH [H-TDK-OH] = 103
• H-Met-Asp-Arg-OH (also: MGO-modified, site not given here) [MGO-modified H-MDR-OH] = 74.5
• H-Leu-Gln-Lys-OH (also: MGO-modified, site not given here) [MGO-modified H-LQK-OH] = 95.3
• Ac-Thr-Asn-Arg-OH (also: MGO-modified, site not given here) [MGO-modified Ac-TNR-OH] = 91.7
• H-Met-Asp-Arg-OH [H-MDR-OH] = 102
• Ac-Met-Asn-Arg-OH (also: MGO-modified, site not given here) [MGO-modified Ac-MNR-OH] = 86.9
• H-Thr-Asp-Lys-OH (also: MGO-modified, site not given here) [MGO-modified H-TDK-OH] = 87.5
• H-Ile-Asp-Arg-OH [H-IDR-OH] = 98
• Ac-Thr-Asp-Lys-OH [Ac-TDK-OH] = 101
• H-Thr-Asn-Arg-OH (also: MGO-modified, site not given here) [MGO-modified H-TNR-OH] = 91.9
• H-Thr-Asn-Arg-OH [H-TNR-OH] = 103
